target: Cytochrome P450 2D6 (Homo sapiens, UniProt P10635); test: Inhibition of CYP2D6 (unknown origin); type: ADME
Sequence (P10635 whole entry): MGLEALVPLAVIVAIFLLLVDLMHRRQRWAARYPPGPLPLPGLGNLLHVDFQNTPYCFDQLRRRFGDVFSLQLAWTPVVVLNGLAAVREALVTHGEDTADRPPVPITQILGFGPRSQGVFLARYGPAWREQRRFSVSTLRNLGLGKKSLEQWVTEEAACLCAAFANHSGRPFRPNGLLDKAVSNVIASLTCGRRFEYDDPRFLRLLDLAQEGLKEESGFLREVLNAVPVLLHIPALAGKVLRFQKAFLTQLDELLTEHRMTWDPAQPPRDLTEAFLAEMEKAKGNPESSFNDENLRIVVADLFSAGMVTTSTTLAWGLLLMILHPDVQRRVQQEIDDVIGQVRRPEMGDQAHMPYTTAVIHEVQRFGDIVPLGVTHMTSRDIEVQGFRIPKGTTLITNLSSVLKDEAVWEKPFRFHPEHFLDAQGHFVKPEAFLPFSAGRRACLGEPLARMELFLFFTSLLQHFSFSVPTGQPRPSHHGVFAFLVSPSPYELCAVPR
quantity name: IC (µM)

> print(dat)
                               query.smiles  quantity.name  sign.qualifier  quantitative.readout
1  CN(C)Cc1ccc(-n2cc(-c3ccc4cc[nH]c4c3)c3c(Cl)ccnc32)cc1             IC               =                    21
2  N[C@@H](c1ccc(-n2cc(-c3ccc4cc[nH]c4c3)c(C(F)(F)F)n2)cc1)C(F)(F)F             IC               =                    21
3  NCCCCn1cc(-c2ccc3cc[nH]c3c2)c(C(F)(F)F)n1             IC               =                    43
4  Nc1ncnc2c1c(-c1ccc3cc[nH]c3c1)cn2-c1ccc(OCCNCCO)cc1             IC               >                    50
5  N[C@@H]1CC[C@@H](n2cc(-c3ccc4cc[nH]c4c3)c(C(F)(F)F)n2)C1             IC               >                    50
6  FC(F)(F)c1nn(-c2ccc(Cc3nc[nH]n3)cc2)cc1-c1ccc2cc[nH]c2c1             IC               =                   0.5
7  NCc1ccc(-n2cc(-c3ccc4cc[nH]c4c3)c(C(F)(F)F)n2)cc1             IC               =                   1.4

----------
target: Voltage-gated inwardly rectifying potassium channel KCNH2 (Homo sapiens, UniProt Q12809); assay: Inhibition of human ERG
Sequence (Q12809 whole entry): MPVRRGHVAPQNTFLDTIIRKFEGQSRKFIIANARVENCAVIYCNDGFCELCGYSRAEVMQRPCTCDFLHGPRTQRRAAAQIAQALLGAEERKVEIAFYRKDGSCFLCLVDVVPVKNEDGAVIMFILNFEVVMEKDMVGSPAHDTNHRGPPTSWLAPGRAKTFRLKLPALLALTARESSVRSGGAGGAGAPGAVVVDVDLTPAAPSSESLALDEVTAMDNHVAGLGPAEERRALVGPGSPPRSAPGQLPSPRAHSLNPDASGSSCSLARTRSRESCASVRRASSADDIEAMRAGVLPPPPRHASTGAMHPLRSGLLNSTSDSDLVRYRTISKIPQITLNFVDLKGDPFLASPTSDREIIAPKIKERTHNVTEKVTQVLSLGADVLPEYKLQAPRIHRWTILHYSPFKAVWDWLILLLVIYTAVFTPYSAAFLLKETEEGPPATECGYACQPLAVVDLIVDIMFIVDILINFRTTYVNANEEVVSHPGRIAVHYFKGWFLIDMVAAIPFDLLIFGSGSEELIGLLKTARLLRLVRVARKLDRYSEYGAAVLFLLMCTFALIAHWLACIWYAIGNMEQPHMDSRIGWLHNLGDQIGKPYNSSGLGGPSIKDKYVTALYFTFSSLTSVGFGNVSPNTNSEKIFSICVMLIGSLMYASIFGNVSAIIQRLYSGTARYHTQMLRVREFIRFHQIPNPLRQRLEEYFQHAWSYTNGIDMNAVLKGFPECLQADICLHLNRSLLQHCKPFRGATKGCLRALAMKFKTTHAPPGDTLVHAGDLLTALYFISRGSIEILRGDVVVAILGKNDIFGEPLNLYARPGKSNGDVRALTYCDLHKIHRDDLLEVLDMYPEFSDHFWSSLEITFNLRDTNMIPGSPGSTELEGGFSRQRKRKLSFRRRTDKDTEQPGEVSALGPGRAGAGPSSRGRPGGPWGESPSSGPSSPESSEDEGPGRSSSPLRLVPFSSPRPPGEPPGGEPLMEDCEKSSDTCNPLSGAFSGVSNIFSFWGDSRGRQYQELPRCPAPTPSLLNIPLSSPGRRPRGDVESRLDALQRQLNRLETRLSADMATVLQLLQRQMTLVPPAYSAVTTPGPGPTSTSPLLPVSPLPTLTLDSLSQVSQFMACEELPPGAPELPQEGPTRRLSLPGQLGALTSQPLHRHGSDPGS
Label YES when IC50 is strictly below 4 µM; otherwise label NO.

> print(dat)
                               query.smiles  group.label
1  N[C@@H]1CC[C@@H](n2cc(-c3ccc4cc[nH]c4c3)c(C(F)(F)F)n2)C1           NO
2  NCCCCn1cc(-c2ccc3cc[nH]c3c2)c(C(F)(F)F)n1          YES
3  N[C@@H](c1ccc(-n2cc(-c3ccc4cc[nH]c4c3)c(C(F)(F)F)n2)cc1)C(F)(F)F           NO
4  Nc1ncnc2c1c(-c1ccc3cc[nH]c3c1)cn2-c1ccc(OCCNCCO)cc1          YES
5  FC(F)(F)c1nn(-c2ccc(Cc3nc[nH]n3)cc2)cc1-c1ccc2cc[nH]c2c1           NO
6  CN(C)Cc1ccc(-n2cc(-c3ccc4cc[nH]c4c3)c3c(Cl)ccnc32)cc1          YES

----------
assay: Elimination half life in mouse at 0.5 mg/kg, iv; type: ADME, organism-based; settings: in vivo, read-out: beta t1/2 (converted)
quantity name: half-life (h)

> print(dat)
                               query.smiles  quantity.name  quantitative.readout
1  N[C@@H]1CC[C@@H](n2cc(-c3ccc4cc[nH]c4c3)c(C(F)(F)F)n2)C1      half-life                   4.5

----------
assay: Plasma clearance in mouse at 1 mg/kg, iv; assay type: ADME, organism-based
Measured clearance of individual entries
quantity name: clearance (L/h/kg)

> print(dat)
                               query.smiles  quantitative.readout
1  CN(C)Cc1ccc(-n2cc(-c3ccc4cc[nH]c4c3)c3c(Cl)ccnc32)cc1                  3.88
2  N[C@@H]1CC[C@@H](n2cc(-c3ccc4cc[nH]c4c3)c(C(F)(F)F)n2)C1                 0.966

----------
Measured AUC(0-inf) of individual entries
assay: AUCinfinity in mouse at 10 mg/kg, po; type: ADME, organism-based; set-up: dose 10 mg/kg, route oral, time infinity; settings: in vivo
quantity name: AUC(0-inf) (µM·h)

> print(dat)
                               query.smiles  unit.label  quantitative.readout
1  N[C@@H]1CC[C@@H](n2cc(-c3ccc4cc[nH]c4c3)c(C(F)(F)F)n2)C1        µM·h                  22.9
2  CN(C)Cc1ccc(-n2cc(-c3ccc4cc[nH]c4c3)c3c(Cl)ccnc32)cc1        µM·h                  2.49

----------
Measured Ratio of individual entries
molecular target: Myeloperoxidase (Homo sapiens) (UniProt P05164); test: Inhibition of myeloperoxidase (unknown origin) assessed as partition ratio by Amplex red based fluorescence assay
Sequence (P05164 165-273 limits assumed): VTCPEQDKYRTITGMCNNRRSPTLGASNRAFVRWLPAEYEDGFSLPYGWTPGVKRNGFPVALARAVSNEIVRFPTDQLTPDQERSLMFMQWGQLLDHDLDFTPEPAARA
Sequence (P05164 279-745 limits assumed): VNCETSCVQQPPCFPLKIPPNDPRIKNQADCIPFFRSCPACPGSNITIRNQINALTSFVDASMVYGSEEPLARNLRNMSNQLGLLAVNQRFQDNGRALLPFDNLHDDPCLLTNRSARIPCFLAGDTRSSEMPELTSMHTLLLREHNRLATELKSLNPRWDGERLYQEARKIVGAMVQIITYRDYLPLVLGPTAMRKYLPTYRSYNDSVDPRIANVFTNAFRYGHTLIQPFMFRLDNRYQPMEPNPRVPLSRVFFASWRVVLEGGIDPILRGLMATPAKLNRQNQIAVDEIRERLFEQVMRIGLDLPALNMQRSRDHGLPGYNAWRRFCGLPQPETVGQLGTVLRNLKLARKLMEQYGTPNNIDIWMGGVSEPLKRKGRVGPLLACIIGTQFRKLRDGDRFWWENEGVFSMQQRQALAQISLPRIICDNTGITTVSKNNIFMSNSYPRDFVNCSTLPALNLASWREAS
quantity name: Ratio

> print(dat)
                                query.smiles  sign.qualifier  quantitative.readout
 1  NCc1ccc(-n2cc(-c3ccc4cc[nH]c4c3)c(C(F)(F)F)n2)cc1               =                   0.4
 2  O=C(O)CCn1cc(-c2ccc3cc[nH]c3c2)c(C(F)(F)F)n1               >                   200
 3  FC(F)(F)c1nn(-c2ccc(Cc3nc[nH]n3)cc2)cc1-c1ccc2cc[nH]c2c1               =                    12
 4  N[C@@H]1CC[C@@H](n2cc(-c3ccc4cc[nH]c4c3)c(C(F)(F)F)n2)C1               =                   3.1
 5  NC(=O)CCn1cc(-c2ccc3cc[nH]c3c2)c(C(F)(F)F)n1               >                   200
 6  Nc1ncnc2c1c(-c1ccc3cc[nH]c3c1)cn2-c1ccc(OCCNCCO)cc1               =                   141
 7  N[C@@H](c1ccc(-n2cc(-c3ccc4cc[nH]c4c3)c(C(F)(F)F)n2)cc1)C(F)(F)F               =                    17
 8  CN(C)Cc1ccc(-n2cc(-c3ccc4cc[nH]c4c3)c3c(Cl)ccnc32)cc1               =                   3.7
 9  NC[C@H]1C[C@H](n2cc(-c3ccc4cc[nH]c4c3)c(C(F)(F)F)n2)C1               =                   6.7
10  NCCCCn1cc(-c2ccc3cc[nH]c3c2)c(C(F)(F)F)n1               =                    42
11  NC(=O)Cn1cc(-c2ccc3cc[nH]c3c2)c(C(F)(F)F)n1               >                   200

----------
molecular target: Myeloperoxidase (Homo sapiens) (UniProt P05164); test: Inhibition of myeloperoxidase (unknown origin) assessed as ratio of Kinact to Ki
Measured Ratio of individual entries
quantity name: Ratio (M⁻¹ s⁻¹)

> print(dat)
                               query.smiles  quantitative.readout
1  NCc1ccc(-n2cc(-c3ccc4cc[nH]c4c3)c(C(F)(F)F)n2)cc1                430000
2  N[C@@H]1CC[C@@H](n2cc(-c3ccc4cc[nH]c4c3)c(C(F)(F)F)n2)C1                230000
3  CN(C)Cc1ccc(-n2cc(-c3ccc4cc[nH]c4c3)c3c(Cl)ccnc32)cc1                210000
4  NCCCCn1cc(-c2ccc3cc[nH]c3c2)c(C(F)(F)F)n1                 61000
5  N[C@@H](c1ccc(-n2cc(-c3ccc4cc[nH]c4c3)c(C(F)(F)F)n2)cc1)C(F)(F)F                122000
6  Nc1ncnc2c1c(-c1ccc3cc[nH]c3c1)cn2-c1ccc(OCCNCCO)cc1                 23000
7  FC(F)(F)c1nn(-c2ccc(Cc3nc[nH]n3)cc2)cc1-c1ccc2cc[nH]c2c1                106000

----------
test: Elimination half life in mouse at 1 mg/kg, iv; assay type: ADME, organism-based; settings: in vivo, read-out: beta t1/2 (converted)
quantity name: half-life (h)

> print(dat)
                               query.smiles  quantitative.readout
1  CN(C)Cc1ccc(-n2cc(-c3ccc4cc[nH]c4c3)c3c(Cl)ccnc32)cc1                   2.6

----------
Measured solubility of individual entries
assay: Solubility of the compound at pH 6.8; assay type: physicochemical; conditions: buffer
quantity name: solubility (µM)

> print(dat)
                               query.smiles  quantity.name  quantitative.readout
1  NCCCCn1cc(-c2ccc3cc[nH]c3c2)c(C(F)(F)F)n1     solubility                    73
2  N[C@@H](c1ccc(-n2cc(-c3ccc4cc[nH]c4c3)c(C(F)(F)F)n2)cc1)C(F)(F)F     solubility                    21
3  Nc1ncnc2c1c(-c1ccc3cc[nH]c3c1)cn2-c1ccc(OCCNCCO)cc1     solubility                    46
4  FC(F)(F)c1nn(-c2ccc(Cc3nc[nH]n3)cc2)cc1-c1ccc2cc[nH]c2c1     solubility                    11
5  N[C@@H]1CC[C@@H](n2cc(-c3ccc4cc[nH]c4c3)c(C(F)(F)F)n2)C1     solubility                   587
6  CN(C)Cc1ccc(-n2cc(-c3ccc4cc[nH]c4c3)c3c(Cl)ccnc32)cc1     solubility                    21
7  NCc1ccc(-n2cc(-c3ccc4cc[nH]c4c3)c(C(F)(F)F)n2)cc1     solubility                    62
